# Test system: RARa:RXR (NR concentration 270 nM, RXRa partner concentration 90 nM)
# assay: PBM binding z-score (relative to random genomic background probes); higher = stronger binding; sequences stand for … in GC…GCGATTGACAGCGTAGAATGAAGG
readout kind: PBM binding z-score
Respond using a number only.

# sequence code, PBM binding z-score
records = [
    ("GCGGCTGGGGCATCAGCAGGTTACCATAACTTAA", 0.635),
    ("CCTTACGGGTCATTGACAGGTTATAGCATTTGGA", 4.67),
    ("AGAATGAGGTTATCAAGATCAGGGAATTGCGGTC", 1.67),
    ("ATCTCTAGGTAAAGTTCAGTGTAAGATCGATAGA", 1.53),
    ("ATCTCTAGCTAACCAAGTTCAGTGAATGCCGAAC", 0.181),
]

Could you share what PBM binding z-score was measured for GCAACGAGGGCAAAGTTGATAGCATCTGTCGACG , tested on RARa:RXR (NR concentration 270 nM, RXRa partner concentration 90 nM)?
1.53
